system under test: Human Androgen Receptor (Homo sapiens)
Construct: expressed in transfected cells; host or cells: HEK-293 cells stably transfected with the pCMVneo-hAR plasmid (G-418 selection); cytosol used
Sequence (P10275 1-920): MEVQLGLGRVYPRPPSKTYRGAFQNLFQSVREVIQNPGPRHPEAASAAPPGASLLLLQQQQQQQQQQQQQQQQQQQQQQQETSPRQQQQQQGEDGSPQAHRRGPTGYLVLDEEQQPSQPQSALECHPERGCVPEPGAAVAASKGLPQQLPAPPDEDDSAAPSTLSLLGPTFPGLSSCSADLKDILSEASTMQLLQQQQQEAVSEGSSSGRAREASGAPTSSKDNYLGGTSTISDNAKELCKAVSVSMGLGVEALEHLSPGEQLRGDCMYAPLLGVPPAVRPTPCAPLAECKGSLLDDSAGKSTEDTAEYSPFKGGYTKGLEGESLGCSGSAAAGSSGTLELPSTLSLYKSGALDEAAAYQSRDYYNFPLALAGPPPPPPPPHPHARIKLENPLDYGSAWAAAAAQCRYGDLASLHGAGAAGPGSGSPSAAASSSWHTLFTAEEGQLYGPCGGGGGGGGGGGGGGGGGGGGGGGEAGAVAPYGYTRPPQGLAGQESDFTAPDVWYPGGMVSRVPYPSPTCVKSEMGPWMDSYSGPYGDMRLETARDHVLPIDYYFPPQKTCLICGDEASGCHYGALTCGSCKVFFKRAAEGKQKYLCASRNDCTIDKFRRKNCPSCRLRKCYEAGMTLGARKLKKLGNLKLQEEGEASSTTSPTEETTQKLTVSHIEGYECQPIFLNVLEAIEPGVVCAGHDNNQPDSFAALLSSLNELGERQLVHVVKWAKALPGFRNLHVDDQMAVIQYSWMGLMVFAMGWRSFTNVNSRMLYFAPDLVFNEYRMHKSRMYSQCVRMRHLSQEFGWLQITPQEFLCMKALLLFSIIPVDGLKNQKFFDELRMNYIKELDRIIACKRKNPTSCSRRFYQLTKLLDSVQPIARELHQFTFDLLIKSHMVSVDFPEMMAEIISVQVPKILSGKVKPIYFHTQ
Assay type: binding
value type: Human Androgen Receptor Binding RBA (%) R1881 = 100%
One number for each entry, in %.

Use these answered entries as a reference point.
compound	units label	observed measurement
C[C@]12CCC3c4ccc(C#N)cc4CCC3C1CC[C@@]2(O)Cc1ccc(-c2ccncc2)cc1 (stereo partly shown) [EM-4240]	%	110
C[C@]12CCC3c4ccc(C#N)c(F)c4CCC3C1CC[C@@]2(O)Cc1ccncc1Cl (stereo partly shown) [EM-8632]	%	47
C[C@]12CCC3c4ccc(C#N)c(F)c4CCC3C1CC[C@@]2(O)Cc1ccncc1 (stereo partly shown) [EM-5855]	%	8.2

Below are 6 compounds. Give each one its Human Androgen Receptor Binding RBA (%) R1881 = 100%.
1. C[C@H]1C[C@@]2(C)C(CC[C@@]2(O)Cc2cc[n+]([O-])cc2)C2CCc3c(ccc(C#N)c3F)C21 (stereo partly shown) [EM-6583]
2. C[C@@]1(Cc2ccc(C#N)cc2)CC2C3CCc4c(C#N)cccc4C3CC[C@]2(C)[C@H]1O (stereo partly shown) [EM-3585]
3. CC1CC2(C)C(CCC2(O)Cc2cc[n+]([O-])cc2F)C2CCc3c(ccc(C#N)c3F)C12 (stereo not shown) [EM-6595]
4. CCC1CC2(C)C(CCC2(O)Cc2cc[n+]([O-])cc2)C2CCc3c(ccc(C#N)c3F)C12 (stereo not shown) [EM-8987]
5. Cc1c(C#N)ccc2c1CCC1C2CCC2(C)C1CCC2(O)Cc1cc[n+]([O-])cc1 (stereo not shown) [EM-5985]
6. CC(C)(O)C(=O)Nc1ccc([N+](=O)[O-])c(C(F)(F)F)c1 [Hydroxyflutamide, reference compound]

### Response
21
55
13
26
2.0
0.21

----------
List of In Vivo Agonist Rat CX % change vs CX (DHT CONT = +100%) Bulbo tested on Immature Rat CX.

Field: example entries. Status: answers known.
molecule	observed measurement
CC[C@H]1C[C@@]2(C)C(CC[C@@]2(O)Cc2ccncc2F)C2CCc3c(ccc(C#N)c3F)C21 (stereo partly drawn)	+66 ± 25%
C[C@@]1(Cc2ccc(C#N)cc2)CC2C3CCc4c(C#N)cccc4C3CC[C@]2(C)[C@H]1O (stereo partly drawn)	+74 ± 18%
C[C@H]1C[C@@]2(C)C(CC[C@@]2(O)Cc2cc[n+]([O-])cc2)C2CCc3c(ccc(C#N)c3F)C21 (stereo partly drawn)	+93 ± 15%
CCC1CC2(C)C(CCC2(O)Cc2cc[n+]([O-])cc2F)C2CCc3c(ccc(C#N)c3F)C12 (stereo not drawn)	+102 ± 12%
CCC1CC2(C)C(CCC2(O)Cc2cc[n+]([O-])cc2)C2CCc3c(ccc(C#N)c3F)C12 (stereo not drawn)	+118 ± 10%

### Prompt Supply recorded In Vivo Agonist Rat CX % change vs CX (DHT CONT = +100%) Bulbo for CC[C@H]1C[C@@]2(C)C(CC[C@@]2(O)Cc2ccncc2)C2CCc3c(ccc(C#N)c3F)C21 (stereo partly drawn) here.
### Response +149 ± 13%

----------
Tested on: Shionogi mouse mammary carcinoma cells
experiment summary: cells
Type: cell-based
value type: % of stim of basal at 10^−7M (% over basal)

In the examples that follow, each entry is paired with its recorded % of stim of basal at 10^−7M (% over basal).
molecule	observed measurement
C[C@H]1C[C@@]2(C)C(CC[C@@]2(O)Cc2ccncc2F)C2CCc3c(ccc(C#N)c3F)C21 (stereo partly shown)	+224%
CC[C@H]1C[C@@]2(C)C(CC[C@@]2(O)Cc2ccncc2F)C2CCc3c(ccc(C#N)c3F)C21 (stereo partly shown)	+45%
CC12CCC3c4ccc(C#N)c(F)c4CCC3C1CCC2(O)Cc1ccc(-c2ccc[n+]([O-])c2)cc1 (stereo not shown)	+94 ± 17%

Dear reader, for each entry below, please note its % of stim of basal at 10^−7M (% over basal).
1. C[C@H]1C[C@@]2(C)C(CC[C@@]2(O)Cc2ccncc2)C2CCc3c(ccc(C#N)c3F)C21 (stereo partly shown)
2. CC1CC2(C)C(CCC2(O)Cc2cc[n+]([O-])cc2F)C2CCc3c(ccc(C#N)c3F)C12 (stereo not shown)
3. CCC1CC2(C)C(CCC2(O)Cc2cc[n+]([O-])cc2F)C2CCc3c(ccc(C#N)c3F)C12 (stereo not shown)

### Response
["+145 ± 78%", "+117 ± 11%", "+36%"]

Take each entry in turn and give its % of stim of basal at 10^−7M (% over basal).
1. CC[C@H]1C[C@@]2(C)C(CC[C@@]2(O)Cc2ccncc2)C2CCc3c(ccc(C#N)c3F)C21 (stereo partly shown)
2. CCC1CC2(C)C(CCC2(O)Cc2cc[n+]([O-])cc2)C2CCc3c(ccc(C#N)c3F)C12 (stereo not shown)
3. C[C@H]1C[C@@]2(C)C(CC[C@@]2(O)Cc2cc[n+]([O-])cc2)C2CCc3c(ccc(C#N)c3F)C21 (stereo partly shown)
4. C[C@@]1(Cc2ccc(C#N)cc2)CC2C3CCc4c(C#N)cccc4C3CC[C@]2(C)[C@H]1O (stereo partly shown)

### Response
["+21%", "+73%", "+138 ± 49%", "+279%"]

----------
System: androgen receptor
experiment summary: Antiandrogen / SARM / androgen profile observed on structural change
condition details: structure-activity observation in estratriene derivatives
value type: activity profile (antiandrogen, SARM or androgen)

compound	system under test	observed measurement
CC12CCC3c4ccc(C#N)c(F)c4CCC3C1CCC2(O)Cc1ccc(-c2ccc[n+]([O-])c2)cc1 (centres unmarked)	androgen receptor	became a SARM
C[C@H]1C[C@@]2(C)C(CC[C@@]2(O)Cc2cc[n+]([O-])cc2)C2CCc3c(ccc(C#N)c3F)C21 (some centres unmarked)	androgen receptor	became a SARM
CC1CC2(C)C(CCC2(O)Cc2cc[n+]([O-])cc2)C2CCc3c(ccc(C#N)c3Cl)C12 (centres unmarked)	androgen receptor	pure androgen
C[C@]12CCC3c4ccc(C#N)c(Cl)c4CCC3C1CC[C@@]2(O)Cc1ccc(-c2ccc[n+]([O-])c2)cc1 (some centres unmarked)	androgen receptor	pure androgen

----------
Test system: Immature Rat CX + DHT
experiment summary: animal or person
Assay type: in vivo
condition details: Rattus norvegicus, po, 168 h, read-out: In Vivo Antagonist % Change vs DHT (CX = −100%) SV
Answer each item with its documented change in vivo at 0.5 mg.
Give bare numbers, in %.

compound	change in vivo at 0.5 mg / %
CC(C)C(=O)Nc1ccc([N+](=O)[O-])c(C(F)(F)F)c1 [Flutamide, reference compound]	-83
CC(O)(CS(=O)(=O)c1ccc(F)cc1)C(=O)Nc1ccc(C#N)c(C(F)(F)F)c1 (centres unmarked) [bicalutamide]	-86
C[C@]12CCC3c4ccc(C#N)cc4CCC3C1CC[C@@]2(O)Cc1ccc(-c2ccncc2)cc1 (some centres unmarked) [EM-4240]	-85

Hello, I would appreciate it if you could give change in vivo at 0.5 mg for each entry below.
1. C[C@]12CCC3c4ccc(C#N)c(F)c4CCC3C1CC[C@@]2(O)Cc1cc[n+]([O-])cc1 (some centres unmarked) [EM-5854]
2. C[C@]12CCC3c4ccc(C#N)c(Cl)c4CCC3C1CC[C@@]2(O)Cc1cc[n+]([O-])cc1F (some centres unmarked) [EM-5987]

### Response
1: -85; 2: -83
